Origin of the recorded values: patent US6015820A

Tested on: HIV-2 D194
method-summary: anti-HIV-2 activity, HIV-2 D194/PBMC
Assay type: cell-based
stated-conditions: Human immunodeficiency virus 2, Table 4
pIC50: −log10 of the molar value.
measured-quantity: pIC50

Entry CCc1c(C)[nH]c(=O)c([N+](=O)[O-])c1Sc1cc(C)cc(C)c1 ; pIC50 = < 5.00

###

method-summary: cytotoxicity on non-infected cells (MTT test)
Type: cell-based
stated-conditions: human, cem-ss cells; Table 4; line HIV-1 (LA1)/CEMSS
measured-quantity: CC50 at 120 h

Entry CCc1c(C)[nH]c(=O)c([N+](=O)[O-])c1Sc1cc(C)cc(C)c1 ; CC50 at 120 h = > 10 µM
